# assayProtocol: in vitro
# condition: African green monkey
outcomeMeasure: CC50

Can you give me CC50 for all of these, one by one?
1. CCOC(=O)NC(=O)c1ccccc1NC(=O)c1nc2ccccc2s1
2. CCOC(=O)NC(=O)c1ccsc1NC(=O)c1cnc2ccoc2c1
3. CCOC(=O)NC(=O)c1ccsc1NC(=O)C1=Cc2cc(OC)ccc2OC1

["> 50 µg/mL", "25 to 50 µg/mL", "> 50 µg/mL"]

---

# assayProtocol: in vitro
# condition: African green monkey
outcomeMeasure: CC50

{"moleculeSmiles": "CCOC(=O)NC(=O)c1cc(F)sc1NC(=O)c1nc2cccnc2s1", "CC50": "25 to 50 µg/mL"}
{"moleculeSmiles": "CCOC(=O)N(C)C(=O)c1ccsc1NC(=O)c1cn2ccccc2n1", "CC50": "25 to 50 µg/mL"}
{"moleculeSmiles": "O=C(NC(=O)c1ccsc1NC(=O)c1cnc2ccnn2c1)OCCC(F)(F)F", "CC50": "< 25 µg/mL"}
{"moleculeSmiles": "CC(=O)N1CCC(OC(=O)NC(=O)c2ccsc2NC(=O)c2cnc3ccnn3c2)CC1", "CC50": "25 to 50 µg/mL"}
{"moleculeSmiles": "CCOC(=O)NC(=O)c1ccsc1NC(=O)c1ccc2ncccc2c1", "CC50": "> 50 µg/mL"}

Can you give me CC50 for all of these, one by one?
1. CCOC(=O)NC(=O)c1ccsc1NC(=O)c1ccc2cccnc2n1
2. CCOC(=O)NC(=O)c1ccsc1NC(=O)c1nc2c(s1)N(S(C)(=O)=O)CCC2
3. CCOC(=O)NC(=O)c1ccsc1NC(=O)c1nc(-c2ccccc2)oc1C

1: < 25 µg/mL; 2: > 50 µg/mL; 3: > 50 µg/mL

# query: CC50 of entry "COC(=O)NC(=O)c1ccsc1NC(=O)c1cn2ccccc2n1"
25 to 50 µg/mL

---

# assayProtocol: in vitro
# condition: African green monkey
Record form. Attribute: CC50. Fill in for each entry.

See these solved cases before continuing.
{"molecule": "CCOC(=O)NC(=O)c1ccsc1NC(=O)c1ccnc(NC(=O)N2CCC(F)(F)CC2)c1 [Compound 50]", "CC50": "25 to 50 µg/mL"}
{"molecule": "CCOC(=O)NC(=O)c1c(NC(=O)c2nc3ccccc3s2)sc(C#N)c1C [Compound 216]", "CC50": "> 50 µg/mL"}
{"molecule": "CC(C)OC(=O)NC(=O)c1ccsc1NC(=O)c1cn2ccc(C#N)cc2n1 [Compound 433]", "CC50": "25 to 50 µg/mL"}

Can you give me CC50 for all of these, one by one?
1. CCOC(=O)NC(=O)c1ccsc1NC(=O)c1sc(-c2ccncc2)nc1C [Compound 135]
2. CCOC(=O)NC(=O)c1ccsc1NC(=O)c1nn(-c2ccccc2)nc1C [Compound 138]
3. CCOC(=O)NC(=O)c1ccsc1NC(=O)c1ccc2sc(C)nc2c1 [Compound 10]
4. CCOC(=O)NC(=O)c1ccsc1NC(=O)c1c(C)nc2ccc(C)cn12 [Compound 336]

["> 50 µg/mL", "> 50 µg/mL", "25 to 50 µg/mL", "25 to 50 µg/mL"]

Can you give me CC50 for all of these, one by one?
1. O=C(NC(=O)c1ccsc1NC(=O)c1nc2cnccc2s1)OC1CCCC1 [Compound 380]
2. CN(C)C(=O)NC(=O)c1ccsc1NC(=O)c1cn2ccccc2n1 [Compound 383]

["< 25 µg/mL", "< 25 µg/mL"]
